Values were extracted from patent US20220033460A1.

# study target: DRB1*07:01
# condition parameters: modification not given
result type: IC50 (nM)

binder="PFAMQMAYRFNGIGV [… (position 897)]" numeric_readout=158
